Value source: patent US8927500B2

Please provide measured 6.25 uM % Lysed cells (1 h LDH) for the entries that follow.
System: SJSA-1 cells
Experiment: Cell lysis by peptidomimetic macrocycles (LDH release)
Format: cell-based
Conditions: 6.25 uM, 1 h at 37C
Where a SMILES comes first, the peptide text is derived from it. Bridges are numbered along the chain shown (N, C = ends). [ ]: non-standard residue; d: D form. R8 = C=CCCCCCC[C@@](C)(N)C(=O)O; S5 = C=CCCC[C@](C)(N)C(=O)O
Report the value in % with no unit label.

Task: Supply recorded 6.25 uM % Lysed cells (1 h LDH) for CC[C@H](C)[C@H](NC(=O)[C@H](C)NC(=O)[C@H](C)NC(=O)[C@]1(C)CCCC=CCCCCCC[C@@](C)(NC(=O)[C@H](Cc2ccccc2)NC(=O)[C@@H](NC(=O)[C@H](CC(C)C)NC(C)=O)[C@@H](C)O)C(=O)N[C@@H](C)C(=O)N[C@@H](Cc2ccc(O)cc2)C(=O)N[C@@H](Cc2c[nH]c3ccccc23)C(=O)N[C@@H](C)C(=O)N[C@@H](CCC(N)=O)C(=O)N[C@@H](CC(C)C)C(=O)N1)C(=O)N[C@H](CC(C)C)C(N)=O (single isomer, unassigned) [compound 81] here.
Output: 1

Task: Identify the reported 6.25 uM % Lysed cells (1 h LDH) for the following entry. CC(=O)N[C@@H](CCC(=O)O)C(=O)N[C@H](C(=O)N[C@@H](Cc1ccccc1)C(=O)N[C@]1(C)CCCCCCC=CCCC[C@@](C)(C(=O)N[C@@H](CO)C(=O)N[C@H](C(=O)N[C@@H](C)C(N)=O)C(C)C)NC(=O)[C@H](CC(C)C)NC(=O)[C@H](CCC(N)=O)NC(=O)[C@H](C)NC(=O)[C@H](Cc2c[nH]c3ccccc23)NC(=O)[C@H](Cc2ccc(O)cc2)NC(=O)[C@H](C(C)C)NC1=O)[C@@H](C)O [compound 126] (Ac-ETF[R8]VYWAQL[S5]SVA-NH2; staple 4-11)
Output: 1

###

Target: MDMX (Homo sapiens, UniProt O15151)
Sequence (O15151 1-125): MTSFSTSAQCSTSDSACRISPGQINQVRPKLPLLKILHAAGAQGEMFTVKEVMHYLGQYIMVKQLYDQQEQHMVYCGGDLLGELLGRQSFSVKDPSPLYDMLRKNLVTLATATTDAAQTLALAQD
Assay: Competitive fluorescence polarization assay for MDMX
Format: binding
Details: competitive FP assay, read-out: Ki (MDMX)
pKi: −log10 of the molar value. Where a SMILES comes first, the peptide text is derived from it. Bridges are numbered along the chain shown (N, C = ends). [ ]: non-standard residue; d: D form. R8 = C=CCCCCCC[C@@](C)(N)C(=O)O; Cba = N[C@@H](CC1CCC1)C(=O)O; Chg = N[C@H](C(=O)O)C1CCCCC1; hLeu = CC(C)CC[C@H](N)C(=O)O; S5 = C=CCCC[C@](C)(N)C(=O)O; Nle = CCCC[C@H](N)C(=O)O
VALUE_KIND: pKi

Task: State the measured pKi (MDMX (Homo sapiens, UniProt O15151)) of CC[C@H](C)[C@H](NC(C)=O)C(=O)N[C@H](C(=O)N[C@@H](Cc1ccccc1)C(=O)N[C@]1(C)CCCCCCC=CCCC[C@@](C)(C(=O)N[C@@H](C)C(=O)N[C@@H](Cc2c[nH]cn2)C(=O)N[C@@H](Cc2ccccc2)C(=O)N[C@@H](C)C(N)=O)NC(=O)[C@H](CC(C)C)NC(=O)[C@H](CCC(N)=O)NC(=O)[C@H](C(C)C)NC(=O)[C@H](Cc2c[nH]c3ccccc23)NC(=O)[C@H](Cc2ccc(O)cc2)NC(=O)[C@H](CCC(=O)O)NC1=O)[C@@H](C)O [compound 192] (Ac-ITF[R8]EYWVQL[S5]AHFA-NH2; staple 4-11)
Output: 7.00 to 8.00

Task: Retrieve pKi on MDMX (Homo sapiens, UniProt O15151); query CCCC[C@H](NC(=O)[C@H](C)NC(=O)[C@H](C)NC(=O)[C@]1(C)CCCC=CCCCCCC[C@@](C)(NC(=O)[C@H](Cc2ccccc2)NC(=O)[C@@H](NC(=O)[C@H](CC(C)C)NC(C)=O)[C@@H](C)O)C(=O)N[C@@H](CCC(=O)O)C(=O)N[C@@H](Cc2ccc(O)cc2)C(=O)N[C@@H](Cc2c[nH]c3ccccc23)C(=O)N[C@@H](C)C(=O)N[C@@H](CCC(N)=O)C(=O)N[C@@H](CCC(C)C)C(=O)N1)C(=O)N[C@@H](C)C(N)=O [compound 318] (Ac-LTF[R8]EYWAQ[hLeu][S5]AA[Nle]A-NH2; staple 4-11)
Output: 7.00 to 8.00

Task: Report value: pKi, system: MDMX (Homo sapiens, UniProt O15151), compound: `CC(=O)N[C@@H](C)C(=O)N[C@@H](CC(C)C)C(=O)N[C@H](C(=O)N[C@@H](Cc1ccccc1)C(=O)N[C@]1(C)CCCCCCC=CCCC[C@@](C)(C(=O)N[C@@H](CO)C(=O)N[C@@H](C)C(=O)N[C@@H](C)C(=O)N[C@@H](C)C(N)=O)NC(=O)[C@H](CC2CCC2)NC(=O)[C@H](CCC(N)=O)NC(=O)[C@H](C)NC(=O)[C@H](Cc2c[nH]c3ccccc23)NC(=O)[C@H](Cc2ccc(O)cc2)NC(=O)[C@H](CCC(=O)O)NC1=O)[C@@H](C)O`
Output: 7.00 to 8.00

Task: Output reported pKi of the compound CC[C@H](C)[C@H](NC(=O)[C@H](C)NC(=O)[C@H](C)NC(=O)[C@]1(C)CCCC=CCCCCCC[C@@](C)(NC(=O)[C@H](Cc2ccccc2)NC(=O)[C@@H](NC(=O)[C@H](CC(C)C)NC(C)=O)[C@@H](C)O)C(=O)N[C@@H](CCC(=O)O)C(=O)N[C@@H](Cc2ccc(O)cc2)C(=O)N[C@@H](Cc2c[nH]c3ccccc23)C(=O)N[C@@H](C)C(=O)N[C@@H](CCC(N)=O)C(=O)N[C@@H](CC2CCC2)C(=O)N1)C(=O)N[C@H](C)C(N)=O [compound 247] (Ac-LTF[R8]EYWAQ[Cba][S5]AAI[dA]-NH2; staple 4-11) on MDMX (Homo sapiens, UniProt O15151).
Output: 7.00 to 8.00

Task: State the measured pKi (MDMX (Homo sapiens, UniProt O15151)) of CCCC[C@H](NC(=O)[C@H](C)NC(=O)[C@H](C)NC(=O)[C@]1(C)CCCC=CCCCCCC[C@@](C)(NC(=O)[C@H](Cc2ccccc2)NC(=O)[C@@H](NC(=O)[C@H](CC(C)C)NC(C)=O)[C@@H](C)O)C(=O)N[C@@H](C)C(=O)N(C)[C@@H](Cc2ccc(O)cc2)C(=O)N[C@@H](Cc2c[nH]c3ccccc23)C(=O)N[C@@H](C)C(=O)N[C@@H](CCC(N)=O)C(=O)N[C@@H](CC(C)C)C(=O)N1)C(=O)N[C@@H](C)C(N)=O (single isomer, unassigned)
Output: < 6.00

Task: Specify pKi for CCCC[C@H](NC(=O)[C@H](C)NC(=O)[C@H](C)NC(=O)[C@]1(C)CCCC=CCCCCCC[C@@](C)(NC(=O)[C@H](Cc2ccccc2)NC(=O)[C@@H](NC(=O)[C@H](CC(C)C)NC(C)=O)[C@@H](C)O)C(=O)N[C@@H](CCC(=O)O)C(=O)N[C@@H](Cc2ccc(O)cc2)C(=O)N[C@@H](Cc2c[nH]c3ccccc23)C(=O)N[C@@H](C)C(=O)N[C@@H](CCC(N)=O)C(=O)N[C@@H](CCC(C)C)C(=O)N1)C(=O)N[C@@H](C)C(=O)N[C@@H](C)C(N)=O [compound 381] (Ac-LTF[R8]EYWAQ[hLeu][S5]AA[Nle]AA-NH2; staple 4-11) , system MDMX (Homo sapiens, UniProt O15151).
Output: 7.00 to 8.00

Task: Return reported pKi for target or system MDMX (Homo sapiens, UniProt O15151), item CC(=O)N[C@@H](CC(C)C)C(=O)N[C@H](C(=O)N[C@@H](Cc1ccccc1)C(=O)N[C@]1(C)CCCCCCC=CCCC[C@@](C)(C(=O)N[C@@H](CO)C(=O)N[C@@H](C)C(=O)N[C@H](C(N)=O)C2CCCCC2)NC(=O)[C@H](CC(C)C)NC(=O)[C@H](CCC(N)=O)NC(=O)[C@H](C)NC(=O)[C@H](Cc2c[nH]c3ccccc23)NC(=O)[C@H](Cc2ccc(O)cc2)NC(=O)[C@H](C)NC1=O)[C@@H](C)O [compound 9] (Ac-LTF[R8]AYWAQL[S5]SA[Chg]-NH2; staple 4-11) .
Output: 7.00 to 8.00

Task: Provide pKi, tested on MDMX (Homo sapiens, UniProt O15151), for CCCC[C@H](NC(=O)[C@H](C)NC(=O)[C@H](C)NC(=O)[C@]1(C)CCCC=CCCCCCC[C@@](C)(NC(=O)[C@H](Cc2ccccc2)NC(=O)[C@@H](NC(=O)[C@H](C)NC(=O)[C@H](C)NC(C)=O)[C@@H](C)O)C(=O)N[C@@H](C)C(=O)N[C@@H](Cc2ccc(O)cc2)C(=O)N[C@@H](Cc2c[nH]c3ccccc23)C(=O)N[C@@H](C)C(=O)N[C@@H](CCC(N)=O)C(=O)N[C@@H](CC(C)C)C(=O)N1)C(=O)N[C@@H](C)C(N)=O [compound 319] (Ac-AATF[R8]AYWAQL[S5]AA[Nle]A-NH2; staple 5-12) .
Output: 6.00 to 7.00
